Species on record: Cavia porcellus
Test: Increase in heart rate with maximal inotropic response in isolated perfused guinea pig heart
Type: functional
Parameters: unit not given beside the values
propertyMeasured: Delta heart rate
Would you mind answering with just the numeric figure?

Guide cases for Delta heart rate, answers given:
# molecule, Delta heart rate
measured = [
    ("N=C(NCCCc1c[nH]cn1)NCCC(c1ccc(Cl)c(Cl)c1)c1ccccn1 (centres undefined)", 62),
    ("N=C(NCCCc1c[nH]cn1)NCCC(c1ccc(F)c(F)c1)c1ccccn1 (centres undefined)", 85),
    ("Cc1[nH]cnc1CSCCNC(=N)NCCCc1c[nH]cn1 [IMPROMIDINE]", 100),
    ("N=C(NCCCc1c[nH]cn1)NCCC(c1ccc(Br)cc1)c1ccccn1 (centres undefined)", 101),
    ("N=C(NCCCc1c[nH]cn1)NCCC(c1cccc(Cl)c1)c1ccccn1 (centres undefined)", 96),
]

Q: Item under review: Cc1ccc(C(CC/N=C(\N)NCCCc2c[nH]cn2)c2ccccn2)cc1 (centres undefined) . Reported Delta heart rate?
Result: 77

Q: Please look up its Delta heart rate: N=C(NCCCc1c[nH]cn1)NCCC(c1ccc(F)cc1)c1ccccn1 (centres undefined) [ARPROMIDINE]
Result: 57

Q: Form field: reported Delta heart rate of N=C(NCCCc1c[nH]cn1)NCCC(c1cc(F)cc(F)c1)c1ccccn1 (centres undefined)
Result: 79

Q: What does the data say about its Delta heart rate? Entry: N=C(NCCCc1c[nH]cn1)NCCC(c1ccc(Cl)cc1)c1ccccn1 (centres undefined)
Result: 62
